# System: styrene monooxygenase StyA/StyB from A. baylyi
# assayProcedure: in vitro sulfoxidation of arylsulfide substrates by purified StyA (oxygenase) with excess StyB (reductase), HPLC analysis
# Type: biochemical, Acinetobacter baylyi sp. ADP1
# statedConditions: enantiomeric excess of sulfoxide formed, abs. configuration S
measuredEndpoint: ee %

Please review the entries below; each comes with its answer.
• CSc1ccc(C)cc1 [p(CH3)—Ph—S—CH3, 4-methylphenyl methyl sulfide] = 97.6%
• CSc1ccc(F)cc1 [p(F)—Ph—S—CH3, 4-fluorophenyl methyl sulfide] = 99.0%
• C=CSc1ccccc1 [Ph—S—CH═CH2, phenyl vinyl sulfide] = 99.7%
• CSc1ccccc1 [Ph—S—CH3, phenyl methyl sulfide] = 99.3%
• CSc1ccc(Cl)cc1 [p(Cl)—Ph—S—CH3, 4-chlorophenyl methyl sulfide] = 95.5%

Below: the item to evaluate.
Req: Sample CSc1ccc(Br)cc1 [p(Br)—Ph—S—CH3, 4-bromophenyl methyl sulfide] — what was its ee %?
Resp: 98.1%
